test: enzyme screen for hydrolysis/methanolysis of butyl-KLG (HPLC of products and remaining substrate); type: biochemical; design: unit: ppm; details: Table 8: 38° C., 21 Hours, 8.6% Methanol-Water, 0.2 M MES
Experimental endpoint: ASA formed (ppm)
Express your answer in ppm, writing the number without its unit.

Molecule	Unit name	ASA formed
Mucor meihei Lipase: Mucor meihei Lipase (protein, UniProt P19515 95-363, looked up) Lipase: SIDGGIRAATSQEINELTYYTTLSANSYCRTVIPGATWDCIHCDATEDLKIIKTWSTLIYDTNAMVARGDSEKTIYIVFRGSSSIRNWIADLTFVPVSYPPVSGTKVHKGFLDSYGEVQNELVATVLDQFKQYPSYKVAVTGHSLGGATALLCALDLYQREEGLSSSNLFLYTQGQPRVGDPAFANYVVSTGIPYRRTVNERDIVPHLPPAAFGFLHAGEEYWITDNSPETVQVCTSDLETSDCSNSIVPFTSVLDHLSYFGINTGLCT	ppm	54
Rhizopus Niveus Lipase: Rhizopus Niveus Lipase (protein, UniProt P61871 96-392, looked up) Lipase: DDNLVGGMTLDLPSDAPPISLSSSTNSASDGGKVVAATTAQIQEFTKYAGIAATAYCRSVVPGNKWDCVQCQKWVPDGKIITTFTSLLSDTNGYVLRSDKQKTIYLVFRGTNSFRSAITDIVFNFSDYKPVKGAKVHAGFLSSYEQVVNDYFPVVQEQLTAHPTYKVIVTGHSLGGAQALLAGMDLYQREPRLSPKNLSIFTVGGPRVGNPTFAYYVESTGIPFQRTVHKRDIVPHVPPQSFGFLHPGVESWIKSGTSNVQICTSEIETKDCSNSIVPFTSILDHLSYFDINEGSCL	ppm	61

# evaluate next
Look up ASA formed: Rhizoipus Delmar Lipase: Rhizoipus Delmar Lipase (protein, UniProt P61872 96-392, looked up) Lipase: DDNLVGGMTLDLPSDAPPISLSSSTNSASDGGKVVAATTAQIQEFTKYAGIAATAYCRSVVPGNKWDCVQCQKWVPDGKIITTFTSLLSDTNGYVLRSDKQKTIYLVFRGTNSFRSAITDIVFNFSDYKPVKGAKVHAGFLSSYEQVVNDYFPVVQEQLTAHPTYKVIVTGHSLGGAQALLAGMDLYQREPRLSPKNLSIFTVGGPRVGNPTFAYYVESTGIPFQRTVHKRDIVPHVPPQSFGFLHPGVESWIKSGTSNVQICTSEIETKDCSNSIVPFTSILDHLSYFDINEGSCL
0

Taken from patent US5817490A.
